The values you see were collected from the supplement of paper PMC11451515.

- Tested on: P12-Ichikawa
- METHOD: cell viability relative to DMSO control; higher = less cytotoxic
- TEST_PARAMETERS: RPMI 5 mM glucose + 10% FBS; 48 h; 5.12 µM
Kindly supply the reported cell viability values for the records listed here.
Answers are plain numbers, in %.

Below, each entry is followed by its recorded cell viability result.
COc1cc2ncnc(Nc3ccc(F)c(Cl)c3)c2cc1NC(=O)/C=C/CN1CCCCC1 :: 85.7
C[C@@]12C[C@@]3(O)O[C@@H](O1)[C@]1(COC(=O)c4ccccc4)[C@H]3C[C@@]12O[C@@H]1O[C@H](CO)[C@@H](O)[C@H](O)[C@H]1O :: 118
CN1CCN(c2ccc([N+](=O)[O-])c3no[n+]([O-])c23)CC1 :: 95.4
CC[C@H](C)[N]1C=C(C)C2=C1C=C(C=C2C(=O)NC\C3=C(C)\C=C(\C)NC3=O)C4=CC=C(N=C4)N5CCNCC5 :: 117
CC(N)C12CC3CC(CC(C3)C1)C2 (stereo not drawn) :: 111
CN(C)[C@H]\1[C@@H]2C[C@H]3C(=C(O)\[C@]2(O)C(=O)\C(=C1O)C(N)=O)/C(=O)C4=C(O)C=CC=C4[C@@]3(C)O :: 115
O=C1c2c(O)ccc(O)c2C(=O)c2c(NCCNCCO)ccc(NCCNCCO)c21 :: 5.93

Next compound, cell viability to be filled in.
The compound "Cc1c(NC(=O)OC[C@@H]2COCCN2)cn2ncnc(Nc3ccc4c(cnn4Cc4cccc(F)c4)c3)c12" , when measured on P12-Ichikawa, yielded cell viability of 76.6

* * *

- Tested on: SEM cells
- METHOD: cell viability relative to DMSO control; higher = less cytotoxic
- TEST_PARAMETERS: HPLM + 10% dialyzed FBS; 48 h; 46.1 µM
PARAMETER_MEASURED: cell viability (%)
Give bare numbers, in %.

Below, each entry is followed by its recorded cell viability result.
Cc1[nH]c2ccccc2c1CCNCc1ccc(/C=C/C(=O)NO)cc1 :: 8.77
CN(C)C1=CC=C(C=C1)C(C2=CC=C(C=C2)N(C)C)=C/3\C=C/C(/C=C3)=[N+](C)C :: 1.2

For every listed record, write down its cell viability.
1. CC(=O)O[C@H]1C[C@@H]2CC[C@@H]3[C@H](CC[C@@]4(C)[C@H]3C[C@H]([N+]3(C)CCCCC3)[C@@H]4OC(C)=O)[C@@]2(C)C[C@@H]1N1CCCCC1
2. OC(CN1CCC(Cc2ccc(F)cc2)CC1)c1ccc(Cl)cc1 (stereo not given)
3. CN[C@@H]1[C@H](O)[C@H](NC)[C@H]2O[C@@]3(O)C(=O)C[C@@H](C)O[C@H]3O[C@@H]2[C@H]1O

result:
1: 110; 2: 129; 3: 109

* * *

- System: P12-Ichikawa
- METHOD: cell viability relative to DMSO control; higher = less cytotoxic
- TEST_PARAMETERS: HPLM + 10% dialyzed FBS; 48 h; 0.19 µM
PARAMETER_MEASURED: cell viability
Please answer using a numeric value trailed by its unit.

Below, each entry is followed by its recorded cell viability result.
CC(C)(C)c1[nH]cnc1/C=c1\[nH]c(=O)/c(=C/c2ccccc2)[nH]c1=O :: 9.79%
COc1cc2ncnc(Nc3ccc(F)c(Cl)c3)c2cc1NC(=O)/C=C/CN1CCCCC1 :: 97.6%
Cc1[nH]c2ccccc2c1CCNCc1ccc(/C=C/C(=O)NO)cc1 :: 103%
COc1ccc(-c2nc(N3CCOCC3)c3sc(CN(C)c4ncc(C(=O)NO)cn4)cc3n2)cn1 :: 7.21%
CNC1CCC(N(Cc2cccc(-c3ccncc3)c2)C(=O)c2sc3c(F)ccc(F)c3c2Cl)CC1 (stereo not drawn) :: 109%
O=C(O[C@H]1C[C@H]2CC[C@@H](C1)[N+]21CCCC1)C(O)(c1ccccc1)c1ccccc1.[Cl-] :: 105%

For every listed record, write down its cell viability.
1. NC(=O)c1ccc(I)c([N+](=O)[O-])c1
2. C[C@@]12C[C@@]3(O)O[C@@H](O1)[C@]1(COC(=O)c4ccccc4)[C@H]3C[C@@]12O[C@@H]1O[C@H](CO)[C@@H](O)[C@H](O)[C@H]1O

result:
1. 139%
2. 99.5%
